test system: MKL-1; experiment: qHTS assay to identify novel small-molecules to repurpose for Merkel cell carcinoma treatment (AID 1296009); settings: MCC and control cell lines, CellTiter-Glo viability, 72 h; series mostly up to 46 µM; also: nearly all actives have a fitted effect of over 60% in size
Records with an inconclusive call do not appear. Active and inactive are the calls of the source. Calls follow the shape of the dose curve; as a rule, active = well fitted inhibition curve with a large enough effect; inconclusive = small, poorly fitted or top-dose-only effect; inactive = flat fitted curve, though single readings scatter.
reported metric: activity change, negative = cytotoxicity

As a guide, the following entries are already answered.
[
  {
    "molecular string": "Nc1ccc(C(=O)Oc2ccccc2)c(O)c1",
    "activity change, negative = cytotoxicity": "inactive"
  },
  {
    "molecular string": "O=C(Cn1ccnc1[N+](=O)[O-])NCCO",
    "activity change, negative = cytotoxicity": "inactive"
  },
  {
    "molecular string": "O=C(O)c1cc(=O)c2ccccc2o1",
    "activity change, negative = cytotoxicity": "inactive"
  },
  {
    "molecular string": "CCCCCOC(=O)Nc1nc(=O)n([C@@H]2O[C@H](C)[C@@H](O)[C@H]2O)cc1F",
    "activity change, negative = cytotoxicity": "inactive"
  },
  {
    "molecular string": "CC(=O)OCC(COC(C)=O)OC(C)=O",
    "activity change, negative = cytotoxicity": "inactive"
  },
  {
    "molecular string": "COC(=O)N/N=C/c1c[n+]([O-])c2ccccc2[n+]1[O-]",
    "activity change, negative = cytotoxicity": "inactive"
  },
  {
    "molecular string": "Cc1c(C)c2c(c(C)c1OC(=O)c1cccnc1)CC[C@@](C)(CCC[C@H](C)CCC[C@H](C)CCCC(C)C)O2",
    "activity change, negative = cytotoxicity": "inactive"
  },
  {
    "molecular string": "NCc1ccc(S(N)(=O)=O)cc1",
    "activity change, negative = cytotoxicity": "inactive"
  },
  {
    "molecular string": "NS(=O)(=O)c1ccc(C(=O)O)cc1",
    "activity change, negative = cytotoxicity": "inactive"
  },
  {
    "molecular string": "O[C@@H]1CO[C@H]2[C@@H]1OC[C@@H]2O",
    "activity change, negative = cytotoxicity": "inactive"
  }
]

Hi! Can you tell me activity change, negative = cytotoxicity for each of these compounds?
1. C[C@@H](N)C(=O)O
2. CCN[C@H]1CN(CCCOC)S(=O)(=O)c2sc(S(N)(=O)=O)cc21

Return:
inactive
inactive

The reported numbers originate from PubChem BioAssay (NCATS).
